Entry source: PubChem BioAssay

- Protocol Details: modulators of CIT2-GFP expression in yeast, confirmation, S. cerevisiae, GFP fusion, cherry picks, mother/daughter gates (AID 2274)
- Condition Parameters: S. cerevisiae CIT2-GFP strain, flow cytometry, 3 h; measured here: daughter cell gate; at 10 µM; stronger effect = higher value
Answer each item with its documented GFP response, % of DMSO.
Answers are plain numbers, in %.

{"Molecule": "O=C(c1cc(-c2cccc(Cl)c2)on1)N1CCc2ccccc2C1", "Measurement Name": "GFP response, % of DMSO", "Units Of Measure": "%", "Meas Value": 97.4}
{"Molecule": "Cc1ccc(C2CCN(C(=S)Nc3cccc(Cl)c3)C2)cc1 (stereo unspecified)", "Measurement Name": "GFP response, % of DMSO", "Units Of Measure": "%", "Meas Value": 90.9}
{"Molecule": "Cc1ccc(N2CC(C(=O)OCc3nnc(-c4ccccc4)o3)CC2=O)cc1 (stereo unspecified)", "Measurement Name": "GFP response, % of DMSO", "Units Of Measure": "%", "Meas Value": 104}
{"Molecule": "O=C1Nc2ccccc2/C1=C\\C(=O)c1ccccc1", "Measurement Name": "GFP response, % of DMSO", "Units Of Measure": "%", "Meas Value": 110}
{"Molecule": "COc1cc(NC(=O)c2c(OC)cccc2OC)ccc1NC(=O)c1cc2ccccc2o1", "Measurement Name": "GFP response, % of DMSO", "Units Of Measure": "%", "Meas Value": 98.3}

Please examine the following record next.
Note down GFP response, % of DMSO recorded for CN1CCSc2ccc(C(=O)Nc3cccc(F)c3)cc21 89

* * *

Answer each item with its documented GFP response relative to DMSO.
- Protocol Details: LAP4-GFP expression modulators in yeast, confirmation, cell-based, cherry picks, flow cytometry, mother/daughter gates (AID 2271);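 also: ratio of sample to DMSO plate mean so 100% equals DMSO level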
- Condition Parameters: S. cerevisiae LAP4-GFP strain, 3 h, measured here: daughter cell gate response, at 10 µM, stronger effect = higher value, 100 means same as DMSO control
Give bare numbers, in %.

# count of solved cases: 5
{"Compound": "O=C1c2cccc3c(N4CCCCC4)ccc(c23)C(=O)N1CCO", "Units Of Measure": "%", "GFP response relative to DMSO": 99.1}
{"Compound": "Cc1cc(C)nc(/N=C(\\N)N2CCCCCC2)n1", "Units Of Measure": "%", "GFP response relative to DMSO": 104}
{"Compound": "Cn1ncc(N2CCN(S(=O)(=O)c3ccc(Br)cc3)CC2)c(Cl)c1=O", "Units Of Measure": "%", "GFP response relative to DMSO": 96}
{"Compound": "O=C(Nc1nc(-c2ccccc2Cl)cs1)c1cccnc1", "Units Of Measure": "%", "GFP response relative to DMSO": 95.6}
{"Compound": "C/C(=N\\NC(=O)COc1ccccc1-c1ccccc1)c1ccccn1", "Units Of Measure": "%", "GFP response relative to DMSO": 136}

I have 7 compounds here; please give me GFP response relative to DMSO for each one.
1. CCOC(=O)c1ccc(N=Cc2nc(-c3ccccc3)oc2OC(C)=O)cc1
2. N/C(=N\OC(=O)c1ccccc1Cl)c1ccc(Cl)cc1
3. Cc1cc(S(=O)(=O)ON2C(=O)c3ccccc3C2=O)ccc1F
4. CCOC(=O)Cc1csc(NC(=O)COc2ccc(N(C)S(=O)(=O)c3cccs3)cc2)n1
5. Cc1ccc(N2C3=C(C(=O)CC(C)(C)C3)C(c3cn(C)nc3C)C3=C2CC(C)(C)CC3=O)cc1
6. CCOc1cc(/C=C2\N=C(C)OC2=O)cc(Cl)c1OCC(=O)OC
7. COc1ccccc1C(=O)N1CCN(c2cccc(C(F)(F)F)c2)CC1

1. 138
2. 115
3. 153
4. 101
5. 122
6. 120
7. 96.5

I have 6 compounds here; please give me GFP response relative to DMSO for each one.
1. O=C(Nc1cccc(Cl)c1N1CCCC1)c1ccc([N+](=O)[O-])o1
2. Cc1cc(C)c2sc(NC(=O)C3=COCCO3)nc2c1
3. CN1CCN(CCCCOc2ccccc2C=O)CC1
4. N/C(Cc1ccc(Cl)cc1Cl)=N\OC(=O)c1ccccc1
5. COc1cc(NC(=O)c2cccc(F)c2)ccc1NC(=O)c1cc2ccccc2o1
6. CCCn1nc(C(=O)OCC(=O)c2ccc3c(c2)NC(=O)CO3)c2ccccc2c1=O

1. 92.8
2. 95
3. 97.2
4. 145
5. 99.3
6. 97.5
